# System: Plasmodium falciparum
# Assay protocol: Growth inhibition after 72 hrs of Plasmodium falciparum D6 by HRPII ELISA
# Type: functional, organism-based
# Measurement conditions: D6, 72 h
Counter-ions that a name gives are not always drawn.
Test readout: IC50 (nM)

• C=CC1CN2CC[C@H]1C[C@H]2[C@H](O)c1ccnc2ccc(OC)cc12 (single isomer, unassigned) [QUININE HYDROCHLORIDE] = 6.7

Source of measurements: ChEMBL document CHEMBL1146201
